System: Fusarium oxysporum
assay_protocol: Antifungal activity against Fusarium oxysporum
Assay type: functional
Could you please report measured MIC for the items listed next?
Unit µg/mL implied. Number only.

Prompt: What value of MIC has been reported for the following molecule? NNC(=O)Cn1ncc2cc([N+](=O)[O-])ccc21
Response: 28

Prompt: What value of MIC has been reported for the following molecule? O=C(Cn1ncc2cc([N+](=O)[O-])ccc21)NN1C(=O)CSC1c1ccccc1Br (stereo not given)
Response: 13

Prompt: What value of MIC has been reported for the following molecule? O=C(Cn1ncc2cc([N+](=O)[O-])ccc21)N/N=C/c1cccc([N+](=O)[O-])c1
Response: 11

Prompt: What value of MIC has been reported for the following molecule? Cc1ccc(/C=N/NC(=O)Cn2ncc3cc([N+](=O)[O-])ccc32)cc1
Response: 25

Prompt: What value of MIC has been reported for the following molecule? O=C(Cn1ncc2cc([N+](=O)[O-])ccc21)N/N=C/c1ccccc1Cl
Response: 13

###

Tested on: Salmonella typhi
assay_protocol: Antibacterial activity against Salmonella typhi at 50 ug/mL
assay_context: read-out: IZ
Could you please report measured zone of inhibition at 50 µg/mL for the items listed next?
Unit mm implied. Number only.

Prompt: What value of zone of inhibition at 50 µg/mL has been reported for the following molecule? O=C(Cn1ncc2cc([N+](=O)[O-])ccc21)NN1C(=O)CSC1c1cccc(Br)c1 (stereo not drawn)
Response: 18

Prompt: What value of zone of inhibition at 50 µg/mL has been reported for the following molecule? CN(C)c1ccc(/C=N/NC(=O)Cn2ncc3cc([N+](=O)[O-])ccc32)cc1
Response: 8.6

Prompt: What value of zone of inhibition at 50 µg/mL has been reported for the following molecule? O=C(Cn1ncc2cc([N+](=O)[O-])ccc21)NN1C(=O)CSC1c1ccccc1Br (stereo not drawn)
Response: 17.2

Prompt: What value of zone of inhibition at 50 µg/mL has been reported for the following molecule? Cc1ccc(C2SCC(=O)N2NC(=O)Cn2ncc3cc([N+](=O)[O-])ccc32)cc1 (stereo not drawn)
Response: 10.1

Prompt: What value of zone of inhibition at 50 µg/mL has been reported for the following molecule? O=C(Cn1ncc2cc([N+](=O)[O-])ccc21)N/N=C/c1cccc(Br)c1
Response: 15.9

Prompt: What value of zone of inhibition at 50 µg/mL has been reported for the following molecule? O=C(Cn1ncc2cc([N+](=O)[O-])ccc21)N/N=C/c1ccccc1Br
Response: 15

Prompt: What value of zone of inhibition at 50 µg/mL has been reported for the following molecule? O=C(Cn1ncc2cc([N+](=O)[O-])ccc21)N/N=C/c1ccccc1Cl
Response: 16.9

Prompt: What value of zone of inhibition at 50 µg/mL has been reported for the following molecule? O=C(Cn1ncc2cc([N+](=O)[O-])ccc21)N/N=C/c1cccc([N+](=O)[O-])c1
Response: 20

###

Tested on: Escherichia coli
assay_protocol: Antibacterial activity against Escherichia coli
Type: functional
Could you please report measured MIC for the items listed next?
Unit µg/mL implied. Number only.

Prompt: What value of MIC has been reported for the following molecule? COc1ccc(/C=N/NC(=O)Cn2ncc3cc([N+](=O)[O-])ccc32)cc1
Response: 25

Prompt: What value of MIC has been reported for the following molecule? O=C(Cn1ncc2cc([N+](=O)[O-])ccc21)NN1C(=O)CSC1c1ccccc1 (stereo not drawn)
Response: 18

Prompt: What value of MIC has been reported for the following molecule? CN[C@@H]1[C@H](O[C@H]2[C@H](O[C@H]3[C@H](O)[C@@H](O)[C@H](N=C(N)N)[C@@H](O)[C@@H]3N=C(N)N)O[C@@H](C)[C@]2(O)C=O)O[C@@H](CO)[C@H](O)[C@H]1O [STREPTOMYCIN]
Response: 8

Prompt: What value of MIC has been reported for the following molecule? CN(C)c1ccc(/C=N/NC(=O)Cn2ncc3cc([N+](=O)[O-])ccc32)cc1
Response: 30

Prompt: What value of MIC has been reported for the following molecule? O=C(Cn1ncc2cc([N+](=O)[O-])ccc21)N/N=C/c1ccc(Cl)cc1
Response: 17

Prompt: What value of MIC has been reported for the following molecule? O=C(Cn1ncc2cc([N+](=O)[O-])ccc21)NN1C(=O)CSC1c1cccc([N+](=O)[O-])c1 (stereo not drawn)
Response: 10

Prompt: What value of MIC has been reported for the following molecule? O=C(Cn1ncc2cc([N+](=O)[O-])ccc21)NN1C(=O)CSC1c1ccc(Cl)cc1 (stereo not drawn)
Response: 13

Prompt: What value of MIC has been reported for the following molecule? O=C(Cn1ncc2cc([N+](=O)[O-])ccc21)N/N=C/c1cccc(Br)c1
Response: 18

###

Tested on: Penicillium citrinum
assay_protocol: Antifungal activity against Penicillium citrinum at 50 ug/mL
Format: functional
assay_context: read-out: IZ
Could you please report measured zone of inhibition at 50 µg/mL for the items listed next?
Unit mm implied. Number only.

Prompt: What value of zone of inhibition at 50 µg/mL has been reported for the following compound? O=C(Cn1ncc2cc([N+](=O)[O-])ccc21)NN1C(=O)CSC1c1cccc(Br)c1 (centres undefined)
Response: 18

Prompt: What value of zone of inhibition at 50 µg/mL has been reported for the following compound? O=C(Cn1ncc2cc([N+](=O)[O-])ccc21)N/N=C/c1ccccc1[N+](=O)[O-]
Response: 18

Prompt: What value of zone of inhibition at 50 µg/mL has been reported for the following compound? O=C(Cn1ncc2cc([N+](=O)[O-])ccc21)N/N=C/c1cccc([N+](=O)[O-])c1
Response: 19

Prompt: What value of zone of inhibition at 50 µg/mL has been reported for the following compound? COc1ccccc1C1SCC(=O)N1NC(=O)Cn1ncc2cc([N+](=O)[O-])ccc21 (centres undefined)
Response: 12.5

Prompt: What value of zone of inhibition at 50 µg/mL has been reported for the following compound? O=C(Cn1ncc2cc([N+](=O)[O-])ccc21)N/N=C/c1ccccc1Br
Response: 13.3

Prompt: What value of zone of inhibition at 50 µg/mL has been reported for the following compound? Cc1ccc(/C=N/NC(=O)Cn2ncc3cc([N+](=O)[O-])ccc32)cc1
Response: 7.1

Prompt: What value of zone of inhibition at 50 µg/mL has been reported for the following compound? CN(C)c1ccc(C2SCC(=O)N2NC(=O)Cn2ncc3cc([N+](=O)[O-])ccc32)cc1 (centres undefined)
Response: 11.4

Prompt: What value of zone of inhibition at 50 µg/mL has been reported for the following compound? O=C(Cn1ncc2cc([N+](=O)[O-])ccc21)N/N=C/c1ccccc1Cl
Response: 15.8

Prompt: What value of zone of inhibition at 50 µg/mL has been reported for the following compound? CCOC(=O)Cn1ncc2cc([N+](=O)[O-])ccc21
Response: 4

###

Test system: Escherichia coli
assay_protocol: Antibacterial activity against Escherichia coli
Type: functional
Could you please report measured MIC for the items listed next?
Unit µg/mL implied. Number only.

Prompt: What value of MIC has been reported for the following compound? CN(C)c1ccc(C2SCC(=O)N2NC(=O)Cn2ncc3cc([N+](=O)[O-])ccc32)cc1 (stereo not given)
Response: 22

Prompt: What value of MIC has been reported for the following compound? O=C(Cn1ncc2cc([N+](=O)[O-])ccc21)NN1C(=O)CSC1c1ccccc1Cl (stereo not given)
Response: 13

Prompt: What value of MIC has been reported for the following compound? Cc1ccc(C2SCC(=O)N2NC(=O)Cn2ncc3cc([N+](=O)[O-])ccc32)cc1 (stereo not given)
Response: 25

Prompt: What value of MIC has been reported for the following compound? O=C(Cn1ncc2cc([N+](=O)[O-])ccc21)NN1C(=O)CSC1c1cccc(Br)c1 (stereo not given)
Response: 15

Prompt: What value of MIC has been reported for the following compound? Cc1ccc(/C=N/NC(=O)Cn2ncc3cc([N+](=O)[O-])ccc32)cc1
Response: 31

Prompt: What value of MIC has been reported for the following compound? O=C(Cn1ncc2cc([N+](=O)[O-])ccc21)N/N=C/c1ccccc1
Response: 22

Prompt: What value of MIC has been reported for the following compound? O=C(Cn1ncc2cc([N+](=O)[O-])ccc21)N/N=C/c1ccccc1O
Response: 20

Prompt: What value of MIC has been reported for the following compound? NNC(=O)Cn1ncc2cc([N+](=O)[O-])ccc21
Response: 32

Prompt: What value of MIC has been reported for the following compound? COc1ccc(C2SCC(=O)N2NC(=O)Cn2ncc3cc([N+](=O)[O-])ccc32)cc1 (stereo not given)
Response: 20

Prompt: What value of MIC has been reported for the following compound? O=C(Cn1ncc2cc([N+](=O)[O-])ccc21)NN1C(=O)CSC1c1ccccc1O (stereo not given)
Response: 16

###

Test system: Penicillium citrinum
assay_protocol: Antifungal activity against Penicillium citrinum at 50 ug/mL
Format: functional
assay_context: read-out: IZ
experimental_readout: zone of inhibition at 50 µg/mL
Remember to put the unit after the number in your answer.

Prompt: What value of zone of inhibition at 50 µg/mL has been reported for the following compound? NNC(=O)Cn1ncc2cc([N+](=O)[O-])ccc21
Response: 6 mm

Prompt: What value of zone of inhibition at 50 µg/mL has been reported for the following compound? COc1ccc(C2SCC(=O)N2NC(=O)Cn2ncc3cc([N+](=O)[O-])ccc32)cc1 (centres undefined)
Response: 13.6 mm

Prompt: What value of zone of inhibition at 50 µg/mL has been reported for the following compound? CN(C)c1ccc(/C=N/NC(=O)Cn2ncc3cc([N+](=O)[O-])ccc32)cc1
Response: 8.2 mm

Prompt: What value of zone of inhibition at 50 µg/mL has been reported for the following compound? O=C(Cn1ncc2cc([N+](=O)[O-])ccc21)NN1C(=O)CSC1c1ccccc1O (centres undefined)
Response: 16 mm
